Values from patent US20190041402A1

STUDY_TARGET: T1, extracellular domain (ECD) of human αKlotho, amino acids E34-S981 with C-terminal 6-His tag (R&D Systems … (human, UniProt Q9UEF7 34-981))
T1 construct: range 34-981; also called αKlotho (aa34-981); target antigen
T1 sequence: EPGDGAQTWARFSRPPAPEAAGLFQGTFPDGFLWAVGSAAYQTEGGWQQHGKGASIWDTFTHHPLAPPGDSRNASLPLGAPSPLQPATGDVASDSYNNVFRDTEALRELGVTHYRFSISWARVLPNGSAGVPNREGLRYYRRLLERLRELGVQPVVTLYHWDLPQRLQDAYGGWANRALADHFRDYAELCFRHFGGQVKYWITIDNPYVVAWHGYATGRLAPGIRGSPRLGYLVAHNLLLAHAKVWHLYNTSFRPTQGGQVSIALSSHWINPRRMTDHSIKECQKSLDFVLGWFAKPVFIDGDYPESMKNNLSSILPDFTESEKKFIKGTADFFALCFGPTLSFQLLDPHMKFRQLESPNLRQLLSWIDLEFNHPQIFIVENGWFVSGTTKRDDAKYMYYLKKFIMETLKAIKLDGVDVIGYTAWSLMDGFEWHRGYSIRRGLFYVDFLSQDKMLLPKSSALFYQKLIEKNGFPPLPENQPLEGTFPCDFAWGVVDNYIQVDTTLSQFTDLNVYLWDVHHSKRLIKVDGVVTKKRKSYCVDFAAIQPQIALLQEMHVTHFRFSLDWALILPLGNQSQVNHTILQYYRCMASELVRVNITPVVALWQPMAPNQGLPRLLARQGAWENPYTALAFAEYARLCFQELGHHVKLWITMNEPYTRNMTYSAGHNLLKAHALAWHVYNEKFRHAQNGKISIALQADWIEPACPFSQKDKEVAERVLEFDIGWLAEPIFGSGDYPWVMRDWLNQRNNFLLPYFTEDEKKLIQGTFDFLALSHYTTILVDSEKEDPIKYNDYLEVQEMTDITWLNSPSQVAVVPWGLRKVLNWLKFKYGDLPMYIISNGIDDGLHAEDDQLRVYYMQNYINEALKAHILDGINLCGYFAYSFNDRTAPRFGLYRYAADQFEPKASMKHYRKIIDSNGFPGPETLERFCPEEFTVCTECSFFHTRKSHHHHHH
ASSAY_TEXT: SPR, Fab captured by anti-H+L IgG, αKlotho injected at 50 to 6.25 ug/ml, Langmuir fit [continued]
Below, each entry is listed with its recorded kon.
Please state the figure in M⁻¹ s⁻¹; there is no need to write the unit.

anti-αKlotho Fab clone 4833 (Fab, V domains shown, Fab (also as Fab-phage); FLAG tag on light chain; also called sb202) VH: EVQLVESGGGLVQPGGSLRLSCAASGFNLSSYYMHWVRQAPGKGLEWVASIYPSYSSTYYADSVKGRFTISADTSKNTAYLQMNSLRAEDTAVYYCARSSYSVYFWWYVSAMDYWGQGTLVTVSS VL: DIQMTQSPSSLSASVGDRVTITCRASQSVSSAVAWYQQKPGKAPKLLIYSASSLYSGVPSRFSGSRSGTDFTLTISSLQPEDFATYYCQQSSHGHYPITFGQGTKVEIKR: 739000

Then this binder:
Lab book: kon of anti-αKlotho Fab clone 4816 (Fab, V domains shown, Fab (also as Fab-phage); FLAG tag on light chain; also called sb185) VH: EVQLVESGGGLVQPGGSLRLSCAASGFNFSSSSIHWVRQAPGKGLEWVASISSSYGYTYYADSVKGRFTISADTSKNTAYLQMNSLRAEDTAVYYCARGWYAAYSVYWFGGHASYGLDYWGQGTLVTVSS VL: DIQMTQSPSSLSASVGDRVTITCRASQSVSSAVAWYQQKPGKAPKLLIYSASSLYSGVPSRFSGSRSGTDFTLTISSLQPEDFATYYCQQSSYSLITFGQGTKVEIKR noted as 888000
